assay: Systemic clearance after intravenous administration; format: in vivo; settings: plasma, cynomolgus monkey, 0.001 mg/mL/kg
Property: clearance; scope: individual compounds
Your answer is read as L/h/kg, so omit the unit and give the number.

>>> df
                                   compound  reported_measurement
0  C[C@@](O)(C/C=C/[C@H]1CCC(=O)[C@@H]1CCSc1nc(C(=O)O)cs1)CCC(F)=C(F)F [Compound 17]                 0.216

(Q) Output measured clearance for this item: C=CCC[C@](C)(O)C/C=C/[C@H]1CCC(=O)[C@@H]1CCSc1nc(C(=O)O)cs1 [Comparative compound D]
(A) 1.43

These measurements were taken from patent US9150528B2.
